Target: LecA (PA-IL) (Pseudomonas aeruginosa)
Construct: soluble calcium-dependent homotetramer, one site per monomer
Test: isothermal titration calorimetry
Assay type: binding
Source text: isothermal titration calorimetry on LecA (PA-IL)
Reported Kd by item:
Your answer should be a number followed by the unit of measure.

INSERT INTO assay_data (compound, target_or_system, endpoint_value) VALUES
  ('C[C@@H]1O[C@@H](S[C@@H]2O[C@H](CO)[C@H](O)[C@H](O)[C@H]2O)[C@@H](O)[C@H](O)[C@@H]1O [compound 14, Thio‐L‐Fuc‐α(1,1)β‐D‐Gal]', 'LecA (PA-IL) (Pseudomonas aeruginosa)', '115 µM');

Pending compound:
Look up Kd with LecA (PA-IL) (Pseudomonas aeruginosa) for this compound: C[C@@H]1O[C@@H](S[C@H]2O[C@H](CO)[C@H](O)[C@H](O)[C@H]2O)[C@@H](O)[C@H](O)[C@@H]1O [compound 27, Thio‐L‐Fuc‐α(1,1)α‐D‐Gal]
55.6 µM

----------
Molecular target: LecA (PA-IL) (Pseudomonas aeruginosa, UniProt Q05097)
Construct: soluble calcium-dependent homotetramer, one site per monomer
Sequence (Q05097 2-122): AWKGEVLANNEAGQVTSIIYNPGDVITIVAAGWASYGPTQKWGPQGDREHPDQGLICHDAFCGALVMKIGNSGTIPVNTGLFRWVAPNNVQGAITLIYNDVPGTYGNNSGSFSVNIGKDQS
Experiment: isothermal titration calorimetry
Type: binding
Details: read-out: LecA / KD; 300 μM lectin, 2 mM ligand; non-sigmoid curve, n apparent
Property: pKd
Just so you know, pKd here is -log10 of the concentration in molar units; reply with that number alone.

Look up pKd: OC[C@H]1OC(O)[C@H](O)[C@@H](O)[C@H]1O (stereo partly drawn) [D-Galactose]
3.76
